ASSAY SUMMARY: Half life in C57B1/6 mouse at 2 mg/kg, iv by LC-MS/MS analysis
Assay type: ADME, organism-based
RUN CONDITIONS: in vivo
ENDPOINT: half-life (h)
Give your result in h as a bare value.

Incoming: Name the recorded half-life of the molecule listed here: N#Cc1c(C(F)(F)F)cc(Nc2ccc(OC(F)(F)F)cc2)n2c1nc1ccccc12
Outgoing: 11.4

====

ASSAY SUMMARY: Resistance index, ratio of IC50 for chloroquine-resistant asexual blood stage of Plasmodium falciparum K1 infected in human RBC to IC50 for chloroquine-sensitive asexual blood stage of Plasmodium falciparum NF54 infected in human RBC
Format: functional
Measured Ratio IC50 by item
Answer using only a numeral; do not append any unit.

Examples with their reported Ratio IC50 follow.
COMPOUND	Ratio IC50
N#Cc1c(C(F)(F)F)cc(NCc2ccccc2F)n2c1nc1cc(Cl)c(Cl)cc12	0.82
FC(F)(F)Oc1ccc(Nc2cc(C(F)(F)F)cc3nc4ccccc4n23)cc1	0.79
N#Cc1c(C(F)(F)F)cc(NCc2cccc(F)c2)n2c1nc1cc(Cl)c(Cl)cc12	0.79
NC(=O)c1c(C(F)(F)F)cc(NCc2ccc(OC(F)(F)F)cc2)n2c1nc1ccccc12	1.47
N#Cc1c(C(F)(F)F)cc(Nc2cccc(OC(F)(F)F)c2)n2c1nc1ccccc12	0.58
N#Cc1c(C(F)(F)F)cc(NCc2ccc(F)cc2)n2c1nc1cc(Cl)c(Cl)cc12	0.64
N#Cc1c(C(F)(F)F)cc(NCc2cccs2)n2c1nc1cc(Cl)c(Cl)cc12	0.45
CS(=O)(=O)c1ccc(CNc2cc(C(F)(F)F)c(C#N)c3nc4cc(Cl)c(Cl)cc4n23)cc1	1.05

Incoming: Name the recorded Ratio IC50 of the compound listed here: N#Cc1c(C(F)(F)F)cc(Nc2ccccc2OC(F)(F)F)n2c1nc1ccccc12
Outgoing: 0.71

====

ASSAY SUMMARY: Solubility of the compound
Type: physicochemical
Measured solubility by item

COMPOUND	solubility
N#Cc1c(C(F)(F)F)cc(Nc2ccc(OC(F)(F)F)cc2)n2c1nc1ccccc12	< 5 µM

Let us move to another entry and its solubility.
Incoming: Name the recorded solubility of the compound listed here: N#Cc1c(C(F)(F)F)cc(NCc2ccccc2F)n2c1nc1cc(Cl)c(Cl)cc12
Outgoing: < 5 µM

====

ASSAY SUMMARY: Half life in human liver microsomes at 0.1 uM in presence of NADPH by LC-MS/MS analysis
RUN CONDITIONS: microsomes
Measured half-life at 0.1 µM by item

COMPOUND	half-life at 0.1 µM
Cc1ccc(CNc2cc(C(F)(F)F)c(C#N)c3nc4cc(Cl)c(Cl)cc4n23)cc1	> 2.5 h

Incoming: Name the recorded half-life at 0.1 µM of the compound listed here: N#Cc1c(C(F)(F)F)cc(NCc2cccc(F)c2)n2c1nc1cc(Cl)c(Cl)cc12
Outgoing: > 2.5 h

====

ASSAY SUMMARY: Cmax in C57B1/6 mouse at 20 mg/kg, po by LC-MS/MS analysis
Format: ADME, organism-based
Parameters: dose 20 mg/kg, route oral
RUN CONDITIONS: in vivo
ENDPOINT: Cmax
# include the unit after the value

Incoming: Name the recorded Cmax of the molecule listed here: N#Cc1c(C(F)(F)F)cc(Nc2ccc(OC(F)(F)F)cc2)n2c1nc1ccccc12
Outgoing: 1100 nM

====

ASSAY SUMMARY: Half life in Balb/c mouse liver microsomes at 0.1 uM in presence of NADPH by LC-MS/MS analysis
RUN CONDITIONS: microsomes
ENDPOINT: half-life at 0.1 µM (h)
Give your result in h as a bare value.

COMPOUND	half-life at 0.1 µM [h]
N#Cc1c(C(F)(F)F)cc(NCc2cccc(F)c2)n2c1nc1cc(Cl)c(Cl)cc12	1.98

Incoming: Name the recorded half-life at 0.1 µM of the compound listed here: Cc1ccc(CNc2cc(C(F)(F)F)c(C#N)c3nc4cc(Cl)c(Cl)cc4n23)cc1
Outgoing: 0.933

====

ASSAY SUMMARY: AUC (0 to infinity) in C57B1/6 mouse at 2 mg/kg, iv by LC-MS/MS analysis
Assay type: ADME, organism-based
Set-up: dose 2 mg/kg, route intravenous, time infinity
RUN CONDITIONS: in vivo
ENDPOINT: AUC
# include the unit after the value

Incoming: Name the recorded AUC of the molecule listed here: N#Cc1c(C(F)(F)F)cc(Nc2ccc(OC(F)(F)F)cc2)n2c1nc1ccccc12
Outgoing: 79.6 µM·h

====

TARGET OF ASSAY: hERG (KCNH2) (Homo sapiens, UniProt Q12809)
Sequence (Q12809 whole entry): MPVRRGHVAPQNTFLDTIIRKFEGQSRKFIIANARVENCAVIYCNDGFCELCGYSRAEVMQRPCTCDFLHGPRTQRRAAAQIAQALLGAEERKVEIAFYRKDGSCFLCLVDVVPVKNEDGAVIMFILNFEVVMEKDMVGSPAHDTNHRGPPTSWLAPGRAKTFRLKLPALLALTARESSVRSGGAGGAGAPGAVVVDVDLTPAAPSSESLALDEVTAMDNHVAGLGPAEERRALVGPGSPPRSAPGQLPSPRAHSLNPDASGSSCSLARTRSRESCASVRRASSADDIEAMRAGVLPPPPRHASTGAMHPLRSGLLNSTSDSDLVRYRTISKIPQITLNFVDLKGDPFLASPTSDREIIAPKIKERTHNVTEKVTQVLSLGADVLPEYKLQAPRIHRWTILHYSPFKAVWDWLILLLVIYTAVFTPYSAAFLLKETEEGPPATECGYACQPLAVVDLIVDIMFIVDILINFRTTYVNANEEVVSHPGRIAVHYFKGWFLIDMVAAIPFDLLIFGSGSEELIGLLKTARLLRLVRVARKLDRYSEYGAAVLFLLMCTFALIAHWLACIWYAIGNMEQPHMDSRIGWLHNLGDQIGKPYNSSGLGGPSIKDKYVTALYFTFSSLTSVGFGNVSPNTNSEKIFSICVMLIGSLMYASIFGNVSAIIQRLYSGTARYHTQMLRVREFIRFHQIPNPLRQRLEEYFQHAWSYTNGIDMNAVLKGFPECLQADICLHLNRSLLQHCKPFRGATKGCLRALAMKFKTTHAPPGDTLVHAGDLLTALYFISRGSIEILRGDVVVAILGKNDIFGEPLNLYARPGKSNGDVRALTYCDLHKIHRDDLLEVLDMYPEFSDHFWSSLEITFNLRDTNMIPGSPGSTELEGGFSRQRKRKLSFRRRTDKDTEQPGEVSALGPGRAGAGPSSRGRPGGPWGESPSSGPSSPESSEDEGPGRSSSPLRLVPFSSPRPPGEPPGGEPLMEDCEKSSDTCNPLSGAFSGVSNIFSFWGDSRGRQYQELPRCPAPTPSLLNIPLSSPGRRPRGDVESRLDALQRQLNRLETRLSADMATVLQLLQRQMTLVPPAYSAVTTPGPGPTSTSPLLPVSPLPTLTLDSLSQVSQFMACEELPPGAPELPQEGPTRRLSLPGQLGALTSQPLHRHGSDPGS
ASSAY SUMMARY: Inhibition of human ERG expressed in CHO cells assessed as reduction in peak channel current at 0.3 uM by IonWork patch-clamp electrophysiology method relative to control
Format: cell-based
RUN CONDITIONS: CHO cells expressing human ERG
Measured inhibition at 0.3 µM by item
Give your result in % as a bare value.

Incoming: Enter measured inhibition at 0.3 µM, system hERG (KCNH2) (Homo sapiens, UniProt Q12809), for the compound shown: N#Cc1c(C(F)(F)F)cc(NCc2cccs2)n2c1nc1cc(Cl)c(Cl)cc12
Outgoing: 6.13

Incoming: Enter measured inhibition at 0.3 µM, system hERG (KCNH2) (Homo sapiens, UniProt Q12809), for the compound shown: N#Cc1c(C(F)(F)F)cc(NCc2ccccc2F)n2c1nc1cc(Cl)c(Cl)cc12
Outgoing: 5.49

Incoming: Enter measured inhibition at 0.3 µM, system hERG (KCNH2) (Homo sapiens, UniProt Q12809), for the compound shown: N#Cc1c(C(F)(F)F)cc(NCc2ccco2)n2c1nc1cc(Cl)c(Cl)cc12
Outgoing: 6.82

Incoming: Enter measured inhibition at 0.3 µM, system hERG (KCNH2) (Homo sapiens, UniProt Q12809), for the compound shown: N#Cc1c(C(F)(F)F)cc(Nc2ccc(OC(F)(F)F)cc2)n2c1nc1ccccc12
Outgoing: 7.51

Incoming: Enter measured inhibition at 0.3 µM, system hERG (KCNH2) (Homo sapiens, UniProt Q12809), for the compound shown: N#Cc1c(C(F)(F)F)cc(NCc2cccc(F)c2)n2c1nc1cc(Cl)c(Cl)cc12
Outgoing: 6.53

====

Tested on: Plasmodium berghei
ASSAY SUMMARY: Antimalarial activity against liver stage form of luciferase transfected Plasmodium berghei sporozoites infected in human HuH7 cells preincubated with host cells for 1 hr followed by plasmodial infection and measured after 48 hrs by bioluminescence method
Assay type: functional, organism-based
RUN CONDITIONS: Huh-7
ENDPOINT: IC50

Examples with their reported IC50 follow.
COMPOUND	TARGET OF ASSAY	VAL
N#Cc1c(C(F)(F)F)cc(NCc2cccc(F)c2)n2c1nc1cc(Cl)c(Cl)cc12	Plasmodium berghei	0.07 µM
N#Cc1c(C(F)(F)F)cc(NCc2ccccc2F)n2c1nc1cc(Cl)c(Cl)cc12	Plasmodium berghei	0.05 µM
N#Cc1c(C(F)(F)F)cc(NCc2ccc(OC(F)(F)F)cc2)n2c1nc1ccccc12	Plasmodium berghei	0.48 µM
N#Cc1c(C(F)(F)F)cc(NCc2cccs2)n2c1nc1cc(Cl)c(Cl)cc12	Plasmodium berghei	0.14 µM
N#Cc1c(C(F)(F)F)cc(NCc2ccc(F)cc2)n2c1nc1ccccc12	Plasmodium berghei	0.89 µM
N#Cc1c(C(F)(F)F)cc(Nc2ccc(OC(F)(F)F)cc2)n2c1nc1ccccc12	Plasmodium berghei	0.11 µM

Incoming: Enter measured IC50, system Plasmodium berghei, for the molecule shown: N#Cc1c(C(F)(F)F)cc(NCc2ccc(OC(F)(F)F)cc2)n2c1nc1cc(Cl)c(Cl)cc12
Outgoing: 0.19 µM

Incoming: Enter measured IC50, system Plasmodium berghei, for the molecule shown: N#Cc1c(C(F)(F)F)cc(NCc2ccco2)n2c1nc1cc(Cl)c(Cl)cc12
Outgoing: 0.06 µM

====

ASSAY SUMMARY: Half life in Balb/c mouse liver microsomes at 0.1 uM in presence of NADPH by LC-MS/MS analysis
RUN CONDITIONS: liver microsomes
ENDPOINT: half-life at 0.1 µM

Examples with their reported half-life at 0.1 µM follow.
COMPOUND	half-life at 0.1 µM
N#Cc1c(C(F)(F)F)cc(NCc2ccc(OC(F)(F)F)cc2)n2c1nc1cc(Cl)c(Cl)cc12	105 min
N#Cc1c(C(F)(F)F)cc(NCc2ccccn2)n2c1nc1cc(Cl)c(Cl)cc12	18 min
N#Cc1c(C(F)(F)F)cc(NCc2ccco2)n2c1nc1cc(Cl)c(Cl)cc12	50 min
N#Cc1c(C(F)(F)F)cc(NCc2ccccc2F)n2c1nc1cc(Cl)c(Cl)cc12	119 min
N#Cc1c(C(F)(F)F)cc(Nc2ccc(OC(F)(F)F)cc2)n2c1nc1ccccc12	> 150 min

Let us move to another entry and its half-life at 0.1 µM.
Incoming: Name the recorded half-life at 0.1 µM of the compound listed here: N#Cc1c(C(F)(F)F)cc(NCc2ccc(F)cc2)n2c1nc1cc(Cl)c(Cl)cc12
Outgoing: 63 min
